This collection of values is drawn from BindingDB's records for doi:10.7270/Q24T6GSH.

target.or.system: Isoform 2 of Nuclear receptor ROR-alpha (Alpha-2) (Homo sapiens, UniProt P35398)
test.method.notes: activators of RORA ligand-binding domain fusion – cell-based, CHO-K1, Gal4-RORA LBD, luciferase luminescence, counter-screen for SF-1 activator project, dose response (AID 675)
# pEC50 values compiled below
Convention used: pEC50 is expressed as -log10 of the molar concentration.

>  <compound>
CC(=O)Nc1ccc(-c2nc3c(C)cccc3[nH]2)cc1

>  <assay.readout>
pEC50

>  <experimental.value>
6.13

$$$$
>  <compound>
Cc1ccc(C(=O)Nc2nnc(-c3cccs3)s2)cc1C

>  <assay.readout>
pEC50

>  <experimental.value>
6.10

$$$$

## Task For the compound shown here, COc1ccc2c(c1)CCc1c(C(=O)N3CCCCCC3)noc1-2 , give the reported pEC50.
## Result 5.80

## Task pEC50 lookup needed for C=CCn1c(-c2ccccc2)c[nH]c1=S , thanks.
## Result 5.83

* * *

Documented EC50 across a set of molecules
target.or.system: Isoform 2 of Nuclear receptor ROR-alpha (Alpha-2) (Homo sapiens)
test.method.notes: activators of RORA ligand-binding domain fusion – cell-based, CHO-K1, Gal4-RORA LBD, luciferase luminescence, counter-screen for SF-1 activator project, dose response (AID 675)

Below, each entry is followed by its recorded EC50 result.
>  <molecule>
Cc1ccc(C(=O)Nc2ncc(Cc3ccccc3)s2)o1

>  <target.or.system>
Isoform 2 of Nuclear receptor ROR-alpha (Alpha-2) (Homo sapiens)

>  <EC50>
> 0.407 µM

$$$$
>  <molecule>
CCc1nnc(NC(=O)CSc2nc3c(cc2C#N)CCC3)s1

>  <target.or.system>
Isoform 2 of Nuclear receptor ROR-alpha (Alpha-2) (Homo sapiens)

>  <EC50>
> 0.407 µM

$$$$

Shift focus to the following entry.
## Task Which EC50 is listed for CC(=Nc1cccc(O)c1)c1sc2ccccc2c1O ?
## Result > 3.67 µM

* * *

target.or.system: Isoform 2 of Nuclear receptor ROR-alpha (Alpha-2) (Homo sapiens, UniProt P35398)
Sequence (P35398 whole entry): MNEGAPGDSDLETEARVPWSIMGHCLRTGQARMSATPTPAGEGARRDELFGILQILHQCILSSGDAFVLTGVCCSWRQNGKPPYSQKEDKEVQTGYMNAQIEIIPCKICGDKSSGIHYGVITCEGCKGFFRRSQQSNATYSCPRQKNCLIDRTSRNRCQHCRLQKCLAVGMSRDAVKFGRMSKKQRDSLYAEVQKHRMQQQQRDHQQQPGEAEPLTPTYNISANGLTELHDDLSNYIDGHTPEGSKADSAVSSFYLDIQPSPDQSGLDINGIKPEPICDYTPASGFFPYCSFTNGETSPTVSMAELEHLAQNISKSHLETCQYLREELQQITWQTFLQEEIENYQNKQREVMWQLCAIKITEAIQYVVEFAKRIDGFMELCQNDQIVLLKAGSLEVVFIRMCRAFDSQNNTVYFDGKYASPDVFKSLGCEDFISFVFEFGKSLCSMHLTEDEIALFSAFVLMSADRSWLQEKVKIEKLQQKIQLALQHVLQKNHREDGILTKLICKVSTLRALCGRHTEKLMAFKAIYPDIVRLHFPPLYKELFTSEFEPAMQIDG
test.method.notes: activators of RORA ligand-binding domain fusion – cell-based, CHO-K1, Gal4-RORA LBD, luciferase luminescence, counter-screen for SF-1 activator project, dose response (AID 675)
# pEC50 annotations
# log scale: pEC50 equals minus log10 of the concentration in mol/L

>  <compound>
CN(C)C(=O)CSc1nnc(C23CC4CC(CC(C4)C2)C3)o1

>  <target.or.system>
Isoform 2 of Nuclear receptor ROR-alpha (Alpha-2) (Homo sapiens, UniProt P35398)

>  <pEC50>
5.27

$$$$

## Task Data request, read-out pEC50, for O=C(CSc1ccccn1)c1ccc2c(c1)OCO2
## Result 5.91

## Task Consider the compound O=C(CNc1ccccc1)Nc1ccc(F)cc1 [2-anilino-N-(4-fluorophenyl)acetamide] and give its measured pEC50.
## Result 5.50
